Origin of values: patent US4209588A

test system: Mycobact. smegmatis ATCC 607
testReadout: MIC (µg/mL)
Give bare numbers, in µg/mL.

# MIC (compound: CC[C@@]1(O)C[C@H](O[C@H]2C[C@H](N(C)C)[C@H](O[C@H]3C[C@H](O)[C@H](O[C@H]4C=CC(=O)[C@H](C)O4)[C@H](C)O3)[C@H](C)O2)c2c(cc3c(c2O)C(=O)c2c(O)cccc2C3=O)[C@H]1C(=O)OC ) is 3.1

###

Provide the reported MIC of each item.
tested on: Mic. flavus
Write your answer as a measured quantity: the number, then the unit.

Look up MIC for the entries below, preserving their order.
1. CC[C@@]1(O)C[C@H](O[C@H]2C[C@H](N(C)C)[C@H](O[C@H]3C[C@H](O)[C@H](OC4CCC(=O)C(C)O4)[C@H](C)O3)[C@H](C)O2)c2c(cc3c(c2O)C(=O)c2c(O)cccc2C3=O)[C@H]1C(=O)OC (stereo partly drawn)
2. CC[C@@]1(O)C[C@H](O[C@H]2C[C@H](N(C)C)[C@H](O[C@H]3C[C@H](O)[C@H](O[C@H]4C[C@H](O)[C@H](O)[C@H](C)O4)[C@H](C)O3)[C@H](C)O2)c2c(cc3c(c2O)C(=O)c2c(O)ccc(O)c2C3=O)[C@H]1C(=O)OC
3. CC[C@@]1(O)C[C@H](O[C@H]2C[C@H](N(C)C)[C@H](O[C@H]3C[C@H](O)[C@H](O[C@H]4C=CC(=O)[C@H](C)O4)[C@H](C)O3)[C@H](C)O2)c2c(cc3c(c2O)C(=O)c2c(O)cccc2C3=O)[C@H]1C(=O)OC

1: 0.2 µg/mL; 2: 0.78 µg/mL; 3: 0.1 µg/mL

###

test system: Bac. subtilis ATCC 6633; assay: Minimum inhibitory concentration, broth dilution method; details: Bacillus subtilis, ATCC6633
testReadout: MIC (µg/mL)
Numbers only, in µg/mL.

CC[C@@]1(O)C[C@H](O[C@H]2C[C@H](N(C)C)[C@H](O[C@H]3C[C@H](O)[C@H](O)[C@H](C)O3)[C@H](C)O2)c2c(cc3c(c2O)C(=O)c2c(O)ccc(O)c2C3=O)[C@H]1C(=O)OC: 3.1

Look up MIC for the entries below, preserving their order.
1. CC[C@@]1(O)C[C@H](O[C@H]2C[C@H](NC)[C@H](O[C@H]3C[C@H](O)[C@H](O[C@H]4CCC(=O)[C@H](C)O4)[C@H](C)O3)[C@H](C)O2)c2c(cc3c(c2O)C(=O)c2c(O)cccc2C3=O)[C@H]1C(=O)OC
2. CC[C@@]1(O)C[C@H](O[C@H]2C[C@H](N(C)C)[C@H](O[C@H]3C[C@H](O)[C@H](O[C@H]4C[C@H](O)[C@H](O)[C@H](C)O4)[C@H](C)O3)[C@H](C)O2)c2c(cc3c(c2O)C(=O)c2c(O)cccc2C3=O)[C@H]1C(=O)OC
3. CC[C@@]1(O)C[C@H](O[C@H]2C[C@H](N(C)C)[C@H](O[C@H]3C[C@H](O)[C@H](OC4CCC(=O)C(C)O4)[C@H](C)O3)[C@H](C)O2)c2c(cc3c(c2O)C(=O)c2c(O)ccc(O)c2C3=O)[C@H]1C(=O)OC (stereo partly shown)

3.1
3.1
1.56

###

test system: solid and ascitic-type mammalian malignant tumors; assay: Inhibitory action against solid and ascitic-type mammalian malignant tumors; assay type: in vivo, mammals; settings: solid and ascitic-type mammalian tumors; in words
testReadout: inhibitory action against malignant tumors

CC[C@@]1(O)C[C@H](O[C@H]2C[C@H](NC)[C@H](O[C@H]3C[C@H](O)[C@H](O[C@H]4CCC(=O)[C@H](C)O4)[C@H](C)O3)[C@H](C)O2)c2c(cc3c(c2O)C(=O)c2c(O)cccc2C3=O)[C@H]1C(=O)OC: marked inhibitory action
CC[C@@]1(O)C[C@H](O[C@H]2C[C@H](N(C)C)[C@H](O[C@H]3C[C@H](O)[C@H](O[C@H]4C[C@H](O)[C@H](O)[C@H](C)O4)[C@H](C)O3)[C@H](C)O2)c2c(cc3c(c2O)C(=O)c2c(O)cccc2C3=O)[C@H]1C(=O)OC: marked inhibitory action

###

Provide the reported MIC of each item.
system: Sar. lutea ATCC 9341; experiment: Minimum inhibitory concentration, broth dilution method; conditions: Micrococcus luteus, ATCC9341
One number for each entry, in µg/mL.

Look up MIC for the entries below, preserving their order.
1. CC[C@@]1(O)C[C@H](O[C@H]2C[C@H](N(C)C)[C@H](O[C@H]3C[C@H](O)[C@H](O)[C@H](C)O3)[C@H](C)O2)c2c(cc3c(c2O)C(=O)c2c(O)ccc(O)c2C3=O)[C@H]1C(=O)OC
2. CC[C@@]1(O)C[C@H](O[C@H]2C[C@H](N(C)C)[C@H](O[C@H]3C[C@H](O)[C@H](O[C@H]4C[C@H](O)[C@H](O)[C@H](C)O4)[C@H](C)O3)[C@H](C)O2)c2c(cc3c(c2O)C(=O)c2c(O)ccc(O)c2C3=O)[C@H]1C(=O)OC
3. CC[C@@]1(O)C[C@H](O[C@H]2C[C@H](NC)[C@H](O[C@H]3C[C@H](O)[C@H](O[C@H]4CCC(=O)[C@H](C)O4)[C@H](C)O3)[C@H](C)O2)c2c(cc3c(c2O)C(=O)c2c(O)cccc2C3=O)[C@H]1C(=O)OC

1.56
1.56
0.78

###

Provide the reported inhibition at 0.1 µg/mL of each item.
tested on: L1210 cells; experiment: Growth inhibition of cultured L1210 cells; details: Mus musculus, L1210, read-out: % Inhibition, Growth (on Day 2)
One number for each entry, in %.

Recorded results for 5 molecules are shown here.
CC[C@@]1(O)C[C@H](O[C@H]2C[C@H](N(C)C)[C@H](O[C@H]3C[C@H](O)[C@H](O[C@H]4CC[C@H](O)[C@H](C)O4)[C@H](C)O3)[C@H](C)O2)c2c(cc3c(c2O)C(=O)c2c(O)cccc2C3=O)[C@H]1C(=O)OC: 79.2
CC[C@@]1(O)C[C@H](O[C@H]2C[C@H](N(C)C)[C@H](O[C@H]3C[C@H](O)[C@H](OC4CCC(=O)C(C)O4)[C@H](C)O3)[C@H](C)O2)c2c(cc3c(c2O)C(=O)c2c(O)cccc2C3=O)[C@H]1C(=O)OC (stereo partly drawn): 80.7
CC[C@@]1(O)C[C@H](O[C@H]2C[C@H](N(C)C)[C@H](O[C@H]3C[C@H](O)[C@H](O)[C@H](C)O3)[C@H](C)O2)c2c(cc3c(c2O)C(=O)c2c(O)cccc2C3=O)[C@H]1C(=O)OC: 86
CC[C@@]1(O)C[C@H](O[C@H]2C[C@H](N(C)C)[C@H](O[C@H]3C[C@H](O)[C@H](O[C@H]4C[C@H](O)[C@H](O)[C@H](C)O4)[C@H](C)O3)[C@H](C)O2)c2c(cc3c(c2O)C(=O)c2c(O)ccc(O)c2C3=O)[C@H]1C(=O)OC: 80.5
CC[C@@]1(O)C[C@H](O[C@H]2C[C@H](N(C)C)[C@H](O[C@H]3C[C@H](O)[C@H](O[C@H]4CCC(=O)[C@H](C)O4)[C@H](C)O3)[C@H](C)O2)c2c(cc3c(c2O)C(=O)c2c(O)cccc2C3=O)[C@H]1C(=O)OC [Aclacinomycin, reference compound]: 89.7

Look up inhibition at 0.1 µg/mL for the entries below, preserving their order.
1. CC[C@@]1(O)C[C@H](O[C@H]2C[C@H](N(C)C)[C@H](O[C@H]3C[C@H](O)[C@H](OC4CCC(=O)C(C)O4)[C@H](C)O3)[C@H](C)O2)c2c(cc3c(c2O)C(=O)c2c(O)ccc(O)c2C3=O)[C@H]1C(=O)OC (stereo partly drawn)
2. CC[C@@]1(O)C[C@H](O[C@H]2C[C@H](N(C)C)[C@H](O[C@H]3C[C@H](O)[C@H](O[C@H]4C[C@H](O)[C@H](O)[C@H](C)O4)[C@H](C)O3)[C@H](C)O2)c2c(cc3c(c2O)C(=O)c2c(O)cccc2C3=O)[C@H]1C(=O)OC
3. CC[C@@]1(O)C[C@H](O[C@H]2C[C@H](NC)[C@H](O[C@H]3C[C@H](O)[C@H](O[C@H]4CCC(=O)[C@H](C)O4)[C@H](C)O3)[C@H](C)O2)c2c(cc3c(c2O)C(=O)c2c(O)cccc2C3=O)[C@H]1C(=O)OC
4. CC[C@@]1(O)C[C@H](O[C@H]2C[C@H](N(C)C)[C@H](O[C@H]3C[C@H](O)[C@H](O[C@H]4C=CC(=O)[C@H](C)O4)[C@H](C)O3)[C@H](C)O2)c2c(cc3c(c2O)C(=O)c2c(O)cccc2C3=O)[C@H]1C(=O)OC

[82.1, 78.5, 27.4, 90.2]
